Biological target: human CD3E&G complex (Sino Biological Inc., CT041-H0305H) (human) (UniProt P07766)
Sequence (P07766 23-126, chain 1 of 2): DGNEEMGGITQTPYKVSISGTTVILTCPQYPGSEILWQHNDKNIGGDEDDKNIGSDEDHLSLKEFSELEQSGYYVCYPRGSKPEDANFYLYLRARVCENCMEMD
Sequence (P09693 23-116, chain 2 of 2, further chain): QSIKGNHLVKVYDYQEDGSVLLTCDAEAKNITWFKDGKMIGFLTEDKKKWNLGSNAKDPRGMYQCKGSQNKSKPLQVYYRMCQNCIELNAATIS
Test: SPR, antigen on chip
Quantity Name: kon (M⁻¹ s⁻¹)

- SGN70-sp34.101LH (bispecific antibody, part only; not given: anti-CD70 Fab arm and Fc, not shown: another chain or arm of the molecule; a dimerising Fc or GST; large carriers) scFv: QAVVTQEPSLTVSPGGTVTLTCRSSTGAVTTSNYANWVQQKPGQAPRGLIGGTNKRAPGVPARFSGSLLGDKAALTLLGAQPEDEAEYYCALWYSNLWVFGQGTKLTVLGGGGSGGGGSGGGGSGGGGSEVQLVESGGGLVQPGGSLKLSCAASGFTFNTYAMNWVRQASGKGLEWVGRIRSKYNNYATYYADSVKDRFTISRDDSKSTLYLQMNSLKTEDTAVYYCARHGNFGQSAASWFAYWGQGTTVTVSS: 290000
